Reference for the values: patent US20260207602A1

# pIC50 listing for each entry below
- assayed_system: EGFR L858R (Homo sapiens, UniProt P00533, L858R)
- Construct: purchased SignalChem E10-122BG
- Sequence (P00533 25-1210 L858R): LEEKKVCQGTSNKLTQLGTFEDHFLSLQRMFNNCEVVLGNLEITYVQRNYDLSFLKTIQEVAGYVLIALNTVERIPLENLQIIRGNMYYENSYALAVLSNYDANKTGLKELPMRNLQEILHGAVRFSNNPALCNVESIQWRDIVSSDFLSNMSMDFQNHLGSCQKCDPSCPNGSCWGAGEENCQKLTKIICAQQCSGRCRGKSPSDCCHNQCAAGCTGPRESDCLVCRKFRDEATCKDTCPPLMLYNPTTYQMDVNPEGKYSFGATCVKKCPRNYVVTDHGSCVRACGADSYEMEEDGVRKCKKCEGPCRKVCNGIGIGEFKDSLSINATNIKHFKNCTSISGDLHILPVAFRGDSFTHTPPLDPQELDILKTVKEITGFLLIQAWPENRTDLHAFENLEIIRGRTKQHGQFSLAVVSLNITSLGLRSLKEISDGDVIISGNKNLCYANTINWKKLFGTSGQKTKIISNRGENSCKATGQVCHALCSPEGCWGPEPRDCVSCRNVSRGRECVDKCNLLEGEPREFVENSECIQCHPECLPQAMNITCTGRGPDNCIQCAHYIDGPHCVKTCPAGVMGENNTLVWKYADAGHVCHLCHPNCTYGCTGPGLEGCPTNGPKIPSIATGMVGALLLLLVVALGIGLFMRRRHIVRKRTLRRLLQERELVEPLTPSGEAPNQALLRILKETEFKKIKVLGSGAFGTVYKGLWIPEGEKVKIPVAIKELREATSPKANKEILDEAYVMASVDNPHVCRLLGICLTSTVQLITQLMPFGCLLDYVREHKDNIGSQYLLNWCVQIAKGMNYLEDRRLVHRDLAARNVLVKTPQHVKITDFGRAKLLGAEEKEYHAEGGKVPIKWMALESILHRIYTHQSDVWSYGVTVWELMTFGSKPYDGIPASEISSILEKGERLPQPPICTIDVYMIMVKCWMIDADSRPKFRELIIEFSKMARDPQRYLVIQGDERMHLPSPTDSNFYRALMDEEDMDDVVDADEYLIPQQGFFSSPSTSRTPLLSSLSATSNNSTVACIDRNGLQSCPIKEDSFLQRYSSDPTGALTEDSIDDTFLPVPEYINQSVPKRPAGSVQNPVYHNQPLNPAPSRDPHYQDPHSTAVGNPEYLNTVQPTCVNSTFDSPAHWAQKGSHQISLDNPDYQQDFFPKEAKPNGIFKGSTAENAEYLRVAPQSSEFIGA
- assay_method_text: Biochemical EGFR inhibition assay (Caliper mobility shift), EGFR L858R
- details: biochemical Caliper mobility shift assay, EGFR L858R enzyme; read-out: Enz EGFR L858R IC50
pIC50: −log10 of the molar value.
endpoint_label: pIC50

>  <molecule>
COCCN1CCC(Oc2cc(-c3cnn(C)c3)cc3ncnc(Nc4ccc5ncsc5c4F)c23)CC1

>  <endpoint_label>
pIC50

>  <reading>
7.30 to 8.00

$$$$
>  <molecule>
C[C@@H]1CNCCN1c1cc(O[C@H](C)C2COC2)c2c(Nc3ccc4ncsc4c3F)ncnc2c1 (single isomer, unassigned) [Example 105]

>  <endpoint_label>
pIC50

>  <reading>
7.30 to 8.00

$$$$
>  <molecule>
CCN1CCN(C(=O)Nc2cc3c(Nc4ccc5ncsc5c4)ncnc3cc2-c2ccn(C)n2)CC1

>  <endpoint_label>
pIC50

>  <reading>
≥ 8.00

$$$$
>  <molecule>
C[C@@H](Oc1cc(N2CCN(C)[C@@H](C)C2)cc2ncnc(Nc3ccc4ncsc4c3F)c12)C1COC1 (single isomer, unassigned) [Example 99]

>  <endpoint_label>
pIC50

>  <reading>
7.30 to 8.00

$$$$
>  <molecule>
CN1CCC(Oc2cc(-c3cn(C)nc3OC(F)F)cc3ncnc(Nc4ccc5ncsc5c4)c23)CC1

>  <endpoint_label>
pIC50

>  <reading>
7.30 to 8.00

$$$$
>  <molecule>
Cn1cc(-c2cc(O[C@H]3CCNC[C@@H]3F)c3c(Nc4ccc5ncsc5c4)ncnc3c2)cn1 (single isomer, unassigned) [Example 347]

>  <endpoint_label>
pIC50

>  <reading>
≥ 8.00

$$$$
>  <molecule>
C[C@@H]1CN(c2cc(O[C@H](C)C3COC3)c3c(Nc4ccc5ncsc5c4F)ncnc3c2)CCN1C (single isomer, unassigned) [Example 103]

>  <endpoint_label>
pIC50

>  <reading>
7.30 to 8.00

$$$$
>  <molecule>
Cn1cc(-c2cc(O[C@@H]3CC[C@@H](O)C3)c3c(Nc4ccc5ncsc5c4)ncnc3c2)cn1

>  <endpoint_label>
pIC50

>  <reading>
≥ 8.00

$$$$
>  <molecule>
Cn1cc(-c2cc(O[C@@H]3C[C@@H](O)[C@@H](O)C3)c3c(Nc4ccc5ncsc5c4)ncnc3c2)cn1 (single isomer, unassigned) [Example A23]

>  <endpoint_label>
pIC50

>  <reading>
≥ 8.00

$$$$
>  <molecule>
COc1nn(C)cc1-c1cc(O[C@@H](C)C(=O)N(C)C)c2c(Nc3ccc4ncsc4c3F)ncnc2c1 (single isomer, unassigned) [Example 287]

>  <endpoint_label>
pIC50

>  <reading>
≥ 8.00

$$$$
>  <molecule>
COc1nn(C)cc1-c1cc(OC2CCN(C3COC3)CC2)c2c(Nc3ccc4ncsc4c3)ncnc2c1

>  <endpoint_label>
pIC50

>  <reading>
≥ 8.00

$$$$
>  <molecule>
Cn1cc(-c2cc(O[C@H]3C[C@@H](O)C3)c3c(Nc4ccc5ncsc5c4)ncnc3c2)cn1

>  <endpoint_label>
pIC50

>  <reading>
≥ 8.00

$$$$
>  <molecule>
CN1CC[C@H](Oc2cc(-c3cnn(C)c3)cc3ncnc(Nc4ccc5ncsc5c4)c23)[C@@H](F)C1 (single isomer, unassigned) [Example 345]

>  <endpoint_label>
pIC50

>  <reading>
≥ 8.00

$$$$

* * *

- assayed_system: intracellular phosphorylation of EGFR (Tyr1068) in PC-9 cells (Homo sapiens, UniProt P00533, DEL746-750)
- Sequence (P00533 with tags, fused parts or gaps DEL746-750): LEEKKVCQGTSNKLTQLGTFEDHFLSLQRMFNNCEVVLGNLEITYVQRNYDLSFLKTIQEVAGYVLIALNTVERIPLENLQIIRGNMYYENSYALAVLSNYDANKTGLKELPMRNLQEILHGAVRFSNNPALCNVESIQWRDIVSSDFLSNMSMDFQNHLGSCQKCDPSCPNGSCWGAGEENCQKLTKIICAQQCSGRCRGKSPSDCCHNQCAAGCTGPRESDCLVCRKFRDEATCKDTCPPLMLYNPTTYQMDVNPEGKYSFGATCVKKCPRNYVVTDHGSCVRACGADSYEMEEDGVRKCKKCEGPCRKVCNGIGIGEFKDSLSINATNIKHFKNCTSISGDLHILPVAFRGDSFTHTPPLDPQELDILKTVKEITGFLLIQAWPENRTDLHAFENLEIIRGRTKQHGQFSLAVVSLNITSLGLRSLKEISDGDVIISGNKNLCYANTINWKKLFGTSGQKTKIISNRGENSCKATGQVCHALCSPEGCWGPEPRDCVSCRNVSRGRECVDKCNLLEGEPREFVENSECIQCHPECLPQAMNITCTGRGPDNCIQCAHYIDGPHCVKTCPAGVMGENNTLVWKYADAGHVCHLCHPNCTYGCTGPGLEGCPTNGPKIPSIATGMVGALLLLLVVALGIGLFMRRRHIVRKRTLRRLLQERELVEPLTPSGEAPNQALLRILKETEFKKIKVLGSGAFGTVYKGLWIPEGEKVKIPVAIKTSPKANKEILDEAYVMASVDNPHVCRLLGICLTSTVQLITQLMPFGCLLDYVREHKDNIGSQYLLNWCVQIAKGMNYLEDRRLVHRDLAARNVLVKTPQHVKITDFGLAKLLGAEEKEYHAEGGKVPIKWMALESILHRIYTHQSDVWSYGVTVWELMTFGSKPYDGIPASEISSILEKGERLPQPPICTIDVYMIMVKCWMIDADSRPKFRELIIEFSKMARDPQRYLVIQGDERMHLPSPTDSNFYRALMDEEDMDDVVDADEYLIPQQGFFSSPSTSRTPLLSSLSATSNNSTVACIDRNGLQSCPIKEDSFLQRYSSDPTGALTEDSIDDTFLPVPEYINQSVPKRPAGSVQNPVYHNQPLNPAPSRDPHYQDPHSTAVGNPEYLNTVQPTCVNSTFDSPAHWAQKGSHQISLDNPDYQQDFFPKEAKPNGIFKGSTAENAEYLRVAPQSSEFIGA
- assay_method_text: PC-9 pEGFR AlphaLISA assay
- Format: cell-based
- details: 4 hours incubation, read-out: Phos EGFR PC9 IC50
pIC50: −log10 of the molar value.

>  <molecule>
C[C@H](Oc1cc(N2CCN(C)C2=O)cc2ncnc(Nc3ccc4ncsc4c3)c12)C1COC1 (single isomer, unassigned) [Example 157]

>  <pIC50>
≥ 8.00

$$$$
>  <molecule>
Cn1cc(-c2cc(OC[C@]34COC[C@H]3C4)c3c(Nc4ccc5ncsc5c4)ncnc3c2)cn1 (single isomer, unassigned) [Example 147]

>  <pIC50>
7.30 to 8.00

$$$$
>  <molecule>
C[C@@H]1CN(c2cc(O[C@H](C)C3COC3)c3c(Nc4ccc5ncsc5c4F)ncnc3c2)CCN1 (single isomer, unassigned) [Example 100]

>  <pIC50>
7.30 to 8.00

$$$$
>  <molecule>
CN1CC[C@H](Nc2cc3c(Nc4ccc5ncsc5c4)ncnc3cc2-c2ccn(C)n2)[C@H](F)C1 (single isomer, unassigned)

>  <pIC50>
≥ 8.00

$$$$
>  <molecule>
CN1CC[C@H](Oc2cc(-c3cnn(C)c3)cc3ncnc(Nc4ccc5ncsc5c4)c23)C1=O (single isomer, unassigned) [Example 23]

>  <pIC50>
≥ 8.00

$$$$
>  <molecule>
C[C@@H](Oc1cc(-c2cnn(C)c2)cc2ncnc(Nc3ccc4ncsc4c3F)c12)[C@@H]1CCCO1

>  <pIC50>
≥ 8.00

$$$$
>  <molecule>
CN1CCN(CCOc2cc(OC3CCOCC3)c3c(Nc4ccc5ncsc5c4)ncnc3c2)CC1

>  <pIC50>
7.30 to 8.00

$$$$
>  <molecule>
COc1cc2ncnc(Nc3ccc4ncsc4c3)c2cc1-c1cnn(C2CCN(C)C[C@H]2F)c1 (single isomer, unassigned) [Example 166]

>  <pIC50>
≥ 8.00

$$$$
>  <molecule>
CC(CN(C)C)Oc1cc(N2CC(C)OC(C)C2)cc2ncnc(Nc3ccc4ncsc4c3)c12 (single isomer, unassigned)

>  <pIC50>
≥ 8.00

$$$$
>  <molecule>
CN1CC[C@H](O)[C@@H](Oc2cc(-c3cnn(C)c3)cc3ncnc(Nc4ccc5ncsc5c4)c23)C1 (single isomer, unassigned) [Example A33]

>  <pIC50>
≥ 8.00

$$$$
>  <molecule>
CN1CCC(Oc2cc(-c3cnn(C)c3)cc3ncnc(Nc4ccc5ncsc5c4)c23)C(F)(F)C1 (stereo not shown)

>  <pIC50>
≥ 8.00

$$$$
>  <molecule>
COC[C@@H](C)Oc1cc(-n2cc([C@H](C)O)cn2)cc2ncnc(Nc3ccc4ncsc4c3F)c12

>  <pIC50>
≥ 8.00

$$$$
>  <molecule>
Cn1cc(-c2cc(O[C@@H]3CC[C@@H](O)C3)c3c(Nc4ccc5ncsc5c4)ncnc3c2)cn1

>  <pIC50>
≥ 8.00

$$$$

* * *

- assayed_system: intracellular phosphorylation of EGFR (Tyr1068) in PC-9 cells (Homo sapiens, UniProt P00533, DEL746-750)
- assay_method_text: PC-9 pEGFR AlphaLISA assay
- details: 4 hours incubation, read-out: Phos EGFR PC9 IC50
# IC50 listing for each entry below
endpoint_label: IC50

>  <molecule>
C[C@@H](Oc1cc(-c2cnn(C)c2)cc2ncnc(Nc3ccc4ncsc4c3F)c12)[C@H]1CCOC1 (single isomer, unassigned)

>  <endpoint_label>
IC50

>  <reading>
≤ 10 nM

$$$$
>  <molecule>
Cn1cc(-c2cc(O[C@H]3CCNC[C@H]3F)c3c(Nc4ccc5ncsc5c4)ncnc3c2)c(OC(F)F)n1

>  <endpoint_label>
IC50

>  <reading>
≤ 10 nM

$$$$
>  <molecule>
Cn1cc(-c2cc(OC3CCN(CC(F)F)CC3)c3c(Nc4ccc5ncsc5c4F)ncnc3c2)cn1

>  <endpoint_label>
IC50

>  <reading>
≤ 10 nM

$$$$
>  <molecule>
CO[C@H]1COC[C@@H]1Oc1cc(-c2cnn(C)c2)cc2ncnc(Nc3ccc4ncsc4c3)c12 (single isomer, unassigned) [Example A31]

>  <endpoint_label>
IC50

>  <reading>
10.1 to 50 nM

$$$$
>  <molecule>
CN1CCC(Oc2cc(-c3cn(C)nc3OC(F)F)cc3ncnc(Nc4ccc5ncsc5c4)c23)CC1

>  <endpoint_label>
IC50

>  <reading>
10.1 to 50 nM

$$$$
>  <molecule>
CN1CC[C@@H](Nc2cc3c(Nc4ccc5ncsc5c4)ncnc3cc2-c2ccn(C)n2)[C@H](F)C1 (single isomer, unassigned)

>  <endpoint_label>
IC50

>  <reading>
≤ 10 nM

$$$$
>  <molecule>
CN(C)C1(COc2cc(-c3cnn(C)c3)cc3ncnc(Nc4ccc5ncsc5c4)c23)COC1

>  <endpoint_label>
IC50

>  <reading>
10.1 to 50 nM

$$$$
>  <molecule>
CO[C@@H]1CCN(c2cc(O[C@H](C)C3COC3)c3c(Nc4ccc5ncsc5c4)ncnc3c2)C1

>  <endpoint_label>
IC50

>  <reading>
≤ 10 nM

$$$$
>  <molecule>
CN1CC[C@@H]2CN(C(=O)Nc3cc4c(Nc5ccc6ncsc6c5)ncnc4cc3-c3ccn(C)n3)C[C@@H]21

>  <endpoint_label>
IC50

>  <reading>
≤ 10 nM

$$$$
>  <molecule>
COc1cc2ncnc(Nc3ccc4ncsc4c3F)c2cc1-c1cnn(C2CCN(C)CC2)c1

>  <endpoint_label>
IC50

>  <reading>
≤ 10 nM

$$$$
>  <molecule>
CN1CC[C@H](Oc2cc(-c3cn(C)nc3OC(F)F)cc3ncnc(Nc4ccc5ncsc5c4)c23)[C@H](F)C1

>  <endpoint_label>
IC50

>  <reading>
10.1 to 50 nM

$$$$
>  <molecule>
CN1CCC(n2cc(-c3cc4ncnc(Nc5ccc6ncsc6c5F)c4cc3F)cn2)CC1

>  <endpoint_label>
IC50

>  <reading>
≤ 10 nM

$$$$
>  <molecule>
COc1cc(O[C@H](C)C2COC2)c2c(Nc3ccc4ncsc4c3)ncnc2c1

>  <endpoint_label>
IC50

>  <reading>
10.1 to 50 nM

$$$$
>  <molecule>
Cn1cc(-c2cc(O[C@H]3CNCC[C@@H]3O)c3c(Nc4ccc5ncsc5c4)ncnc3c2)cn1 (racemic)

>  <endpoint_label>
IC50

>  <reading>
> 50.1 nM

$$$$
>  <molecule>
CC(Oc1cc(N2CCN(C)C3CC32)cc2ncnc(Nc3ccc4ncsc4c3)c12)C1COC1 (stereo not drawn)

>  <endpoint_label>
IC50

>  <reading>
≤ 10 nM

$$$$
>  <molecule>
COc1nn(C)cc1-c1cc(O[C@H]2CN(C)C[C@H]2F)c2c(Nc3ccc4ncsc4c3)ncnc2c1 (single isomer, unassigned) [Example 374]

>  <endpoint_label>
IC50

>  <reading>
10.1 to 50 nM

$$$$
>  <molecule>
CN(C)CCOc1cc(-c2cnn(C)c2)cc2ncnc(Nc3ccc4ncsc4c3)c12

>  <endpoint_label>
IC50

>  <reading>
10.1 to 50 nM

$$$$
>  <molecule>
C[C@@H](Oc1cc(N2CCN(C)CC2)cc2ncnc(Nc3ccc4ncsc4c3)c12)C1COC1 (single isomer, unassigned) [Example 96]

>  <endpoint_label>
IC50

>  <reading>
10.1 to 50 nM

$$$$
>  <molecule>
COc1cc2ncnc(Nc3ccc4ncsc4c3)c2cc1-c1cnn(C2CCN(C)C[C@H]2F)c1 (single isomer, unassigned) [Example 167]

>  <endpoint_label>
IC50

>  <reading>
10.1 to 50 nM

$$$$
>  <molecule>
C[C@@H](Oc1cc(-c2cnn(C)c2)cc2ncnc(Nc3ccc4ncsc4c3)c12)[C@H]1CNCCO1 (single isomer, unassigned)

>  <endpoint_label>
IC50

>  <reading>
≤ 10 nM

$$$$
>  <molecule>
CN1CCC[C@@H]1COc1cc(-c2cnn(C)c2)cc2ncnc(Nc3ccc4ncsc4c3)c12

>  <endpoint_label>
IC50

>  <reading>
10.1 to 50 nM

$$$$
>  <molecule>
CN1C[C@H](F)C[C@H](Oc2cc(-c3cnn(C)c3)cc3ncnc(Nc4ccc5ncsc5c4)c23)C1 (single isomer, unassigned)

>  <endpoint_label>
IC50

>  <reading>
≤ 10 nM

$$$$
>  <molecule>
CN1CCC(Oc2cc(-c3cn(C)n(C(F)F)c3=O)cc3ncnc(Nc4ccc5ncsc5c4)c23)CC1

>  <endpoint_label>
IC50

>  <reading>
10.1 to 50 nM

$$$$
>  <molecule>
CN1CCC2(COC2)[C@H](Oc2cc(-c3cnn(C)c3)cc3ncnc(Nc4ccc5ncsc5c4)c23)C1 (single isomer, unassigned) [Example 353]

>  <endpoint_label>
IC50

>  <reading>
≤ 10 nM

$$$$
>  <molecule>
Cn1cc(-c2cc(OCC3(C)COC3)c3c(Nc4ccc5ncsc5c4)ncnc3c2)cn1

>  <endpoint_label>
IC50

>  <reading>
10.1 to 50 nM

$$$$
>  <molecule>
C[C@@H](Oc1cc(-c2cnn(C)c2)cc2ncnc(Nc3ccc4ncsc4c3F)c12)[C@H]1CCCO1

>  <endpoint_label>
IC50

>  <reading>
≤ 10 nM

$$$$
>  <molecule>
CO[C@@H]1CNCC[C@H]1Oc1cc(-c2cnn(C)c2)cc2ncnc(Nc3ccc4ncsc4c3)c12 (single isomer, unassigned) [Example A42]

>  <endpoint_label>
IC50

>  <reading>
≤ 10 nM

$$$$
